The measured values listed here are drawn from patent US20250134890A1.

Tested on: Plasmodium falciparum: 3D7 strain
Test name: P. falciparum 3D7 asexual blood stage assay (SYBR green readout)
Type: cell-based
Test parameters: Plasmodium falciparum, 3D7, Erythrocyte, 72 h, P. falciparum 3D7 in human erythrocytes, 72 h incubation, SYBR green fluorescence
Where a name gives a salt, the structure may show the parent alone.
pIC50 listing for selected molecules.
# log scale: pIC50 equals minus log10 of the concentration in mol/L

Example entries begin here.
{"columns": ["Molecule", "pIC50"],
 "data": [
  ["C[C@H]1C[C@@H](N2C(=N)N[C@](C)(c3cccc(-c4cccc(S(C)(=O)=O)c4)c3Cl)CC2=O)CCO1 [Example 4, hydrochloride]", 7.77],
  ["C[C@H]1C[C@@H](N2C(=N)N[C@](C)(c3cccc(-c4ccncc4)c3Cl)CC2=O)CCO1 [Example 39, trifluoroacetic acid salt]", 6.57]
]}

Can you look up the measured pIC50 of C[C@H]1C[C@@H](N2C(=N)N[C@](C)(c3cccc(-c4cccc(N=S(C)(C)=O)c4)c3Cl)CC2=O)CCC1(F)F [Example 20, hydrochloride] for me?
7.06

// query pIC50 value for entry C[C@H]1C[C@@H](N2C(=N)N[C@](C)(c3cccc(-c4ccc(N=S(C)(C)=O)cc4F)c3Cl)CC2=O)CCC1(F)F [Example 18, hydrochloride]
6.53

Query: pIC50; subject: C[C@@]1(c2cccc(-c3cccc(Cl)c3)c2Cl)CC(=O)N([C@@H]2CCC(F)(F)[C@@H](O)C2)C(=N)N1 (relative stereo) [Example 24, trifluoroacetic acid salt]
6.95

----------
System: Plasmodium falciparum: 3D7 strain
Test name: P. falciparum 3D7 asexual blood stage assay (SYBR green readout)
Type: cell-based
Test parameters: Plasmodium falciparum, 3D7, Erythrocyte, 72 h, P. falciparum 3D7 in human erythrocytes, 72 h incubation, SYBR green fluorescence
Counter-ions that a name gives are not always drawn.
# Lookup of reported pIC50 keyed by entry
pIC50 is defined as minus the log10 of a concentration measured in mol/L.

Sample records with pIC50:
{"columns": ["Compound", "Endpoint name", "Experimental value"],
 "data": [
  ["C[C@H]1C[C@@H](N2C(=N)N[C@](C)(c3cccc(-c4cccc(N5CCOCC5)c4)c3Cl)CC2=O)CCO1 [Example 29, trifluoroacetic acid salt]", "pIC50", 7.19],
  ["C[C@H]1C[C@@H](N2C(=N)N[C@](C)(c3cccc(-c4cc(F)ccc4F)c3Cl)CC2=O)CCO1 [Example 42, trifluoroacetic acid salt]", "pIC50", 7.06]
]}

Field: next compound
Fill in the blank: the reported pIC50 of CCCCn1cc(-c2cccc([C@]3(C)CC(=O)N([C@H]4CCO[C@@H](C)C4)C(=N)N3)c2Cl)nn1 [Example 127, trifluoroacetic acid salt] is ____.
7.00

----------
System: Plasmodium falciparum: 3D7 strain
Test name: P. falciparum 3D7 asexual blood stage assay (SYBR green readout)
Format: cell-based
Test parameters: Plasmodium falciparum, 3D7, Erythrocyte, 72 h, P. falciparum 3D7 in human erythrocytes, 72 h incubation, SYBR green fluorescence
Counter-ions that a name gives are not always drawn.
Endpoint name: IC50 (nM)
Write the value in nM as a bare number.

Solved cases below.
{"columns": ["Compound", "Readout unit", "IC50"],
 "data": [
  ["CC(n1cc(-c2cccc([C@]3(C)CC(=O)N([C@H]4CCO[C@@H](C)C4)C(=N)N3)c2Cl)nn1)C12CC(CO1)C2 (stereo partly drawn) [Example 125, trifluoroacetic acid salt]", "nM", 220],
  ["C[C@@]1(c2cccc(-c3cncc(Cl)c3)c2Cl)CC(=O)N([C@@H]2CCC(F)(F)[C@H](O)C2)C(=N)N1 (relative stereo) [Example 23, hydrochloride]", "nM", 158],
  ["C[C@H]1C[C@@H](N2C(=N)N[C@](C)(c3cccc(-c4cn(-c5ccccc5)nn4)c3Cl)CC2=O)CCO1 [Example 126, trifluoroacetic acid salt]", "nM", 5],
  ["C[C@H]1C[C@@H](N2C(=N)N[C@](C)(c3cccc(-c4ccc(C#N)cc4)c3Cl)CC2=O)CCO1 [Example 60, trifluoroacetic acid salt]", "nM", 297],
  ["C[C@H]1C[C@@H](N2C(=N)N[C@](C)(c3cccc(-c4ccc(Cl)cc4Cl)c3Cl)CC2=O)CCO1 [Example 16, trifluoroacetic acid salt]", "nM", 66]
]}

Consider the compound C[C@H]1C[C@@H](N2C(=N)N[C@](C)(c3cccc(-c4c(F)cccc4F)c3Cl)CC2=O)CCO1 [Example 47, trifluoroacetic acid salt] and give its measured IC50.
44

Given the compound C[C@@]1(c2cccc(-c3cnn(CC(F)(F)F)c3)c2Cl)CC(=O)N([C@@H]2CCC(F)(F)[C@H](O)C2)C(=N)N1 (relative stereo) [Example 84, hydrochloride] , what is its reported IC50?
339

Which IC50 is reported for this compound? C[C@H]1C[C@@H](N2C(=N)N[C@](C)(c3cccc(-c4cn(-c5cc(F)c(F)cc5F)nn4)c3Cl)CC2=O)CCO1 [Example 109, hydrochloride]
171

Returns the measured IC50 for the input compound. Input: C[C@@H]1C[C@H](N2C(=N)N[C@](C)(c3cccc(-c4cn(-c5cc(F)c(F)cc5F)nn4)c3Cl)CC2=O)CC[C@@H]1O (relative stereo) [Example 113, hydrochloride]
540

Param item = C[C@H]1C[C@@H](N2C(=N)N[C@](C)(c3cccc(-c4ccc(NS(C)(=O)=O)cc4)c3Cl)CC2=O)CCC1(F)F [Example 14, trifluoroacetic acid salt] ; retrieve measured IC50.
97

Quick one: IC50 for C[C@H]1C[C@@H](N2C(=N)N[C@](C)(c3cccc(-c4cccc5ccccc45)c3Cl)CC2=O)CCO1 [Example 35, trifluoroacetic acid salt] ?
355

May I ask what IC50 has been recorded for C[C@@]1(c2cccc(-c3cccc(Cl)c3)c2Cl)CC(=O)N(C(CO)C2CC2)C(=N)N1 (single isomer, unassigned) [Example 94, hydrochloride] ?
88

What measured IC50 goes with C[C@H]1C[C@@H](N2C(=N)N[C@](C)(c3cccc(-c4cccc(Cl)c4)c3Cl)CC2=O)CC[C@H]1O (relative stereo) [Example 8, hydrochloride] ?
247

Requested field: IC50. Item: CC(C)c1ccccc1-c1cccc([C@]2(C)CC(=O)N([C@H]3CCO[C@@H](C)C3)C(=N)N2)c1Cl [Example 36, trifluoroacetic acid salt]
95

Please give the measured IC50 for this compound: C[C@H]1C[C@@H](N2C(=N)N[C@](C)(c3cccc(-c4cccc(C(O)C(F)F)c4)c3Cl)CC2=O)CCO1 (single isomer, unassigned) [Example 25, hydrochloride]
38

----------
Tested on: Plasmodium falciparum: 3D7 strain
Test name: P. falciparum 3D7 asexual blood stage assay (SYBR green readout)
Format: cell-based
Test parameters: Plasmodium falciparum, 3D7, Erythrocyte, 72 h, P. falciparum 3D7 in human erythrocytes, 72 h incubation, SYBR green fluorescence
Where a name gives a salt, the structure may show the parent alone.
Quick reference for pIC50 among some molecules
// field semantics: pIC50 = negative decimal log of concentration (mol/L)

// worked examples, pIC50 included
{"columns": ["Molecule", "pIC50"],
 "data": [
  ["C[C@H]1C[C@@H](N2C(=N)N[C@](C)(c3cccc(-c4ccc(F)cc4F)c3Cl)CC2=O)CCO1 [Example 51, trifluoroacetic acid salt]", 7.02],
  ["C[C@H]1C[C@@H](N2C(=N)N[C@](C)(c3cccc(-c4cn(CCN5CCCC5)nn4)c3Cl)CC2=O)CCO1 [Example 118, trifluoroacetic acid salt]", 6.00],
  ["C[C@H]1C[C@@H](N2C(=N)N[C@](C)(c3cccc(-c4ccc(Cl)cc4F)c3Cl)CC2=O)CCO1 [Example 15, trifluoroacetic acid salt]", 6.85],
  ["C[C@@H]1C[C@@H](N2C(=N)N[C@](C)(c3cccc(-c4ccc(OC(F)(F)F)nc4)c3Cl)CC2=O)CCS1(=O)=O (relative stereo) [Example 81, hydrochloride]", 6.38],
  ["C[C@H]1C[C@@H](N2C(=N)N[C@](C)(c3cccc(-c4cccc(Cl)c4)c3Cl)CC2=O)CCO1 [Example 17, trifluoroacetic acid salt]", 7.04],
  ["C[C@@]1(c2cccc(-c3cccc(Cl)c3)c2Cl)CC(=O)N([C@@H]2CCOC[C@H]2O)C(=N)N1 (relative stereo) [Example 96, hydrochloride]", 5.84]
]}

Attention now shifts to the item below.
Bench note: what pIC50 did C[C@H]1C[C@@H](N2C(=N)N[C@](C)(c3cccc(-c4cncnc4)c3Cl)CC2=O)CCO1 [Example 41, trifluoroacetic acid salt] show?
6.84
